Origin of measurements: paper PMC10668032

Molecular target: SIX1-Q177R homeodomain (human, UniProt Q15475 108-198, Q177R)
Sequence: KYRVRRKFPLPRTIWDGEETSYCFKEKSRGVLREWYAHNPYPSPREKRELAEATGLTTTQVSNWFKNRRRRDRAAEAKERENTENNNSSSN
Test: universal protein binding microarray; Universal all-10-mer PBM (8x60K, AMADID 030236), 300 nM GST-tagged protein, Alexa Fluor 488 anti-GST; buffer, salt, pH and temperature not stated (as in Berger); high values mean tight binding
Conditions: protein: ivt; tags: N-terminal GST; dsDNA, one strand shown
The full ranking holds about 33,000 sequences; the median of “e-score” is about -0.05, and the highest 2% start at about 0.38. This is one part of a sample in which the highest values are shown more often than they occur.
// binding signal lookup, one value per entry
Report field: quantity (unit follows the number).

Input: May I ask what binding signal has been recorded for AGTGTTGG ?
Output: 0.356 E-score

Input: May I ask what binding signal has been recorded for CCCTAACA ?
Output: 0.181 E-score

Input: May I ask what binding signal has been recorded for TAGTTACA ?
Output: 0.249 E-score

New cases:
Input: May I ask what binding signal has been recorded for GGGTGTAA ?
Output: 0.478 E-score

Input: May I ask what binding signal has been recorded for AGTGTCGA ?
Output: 0.408 E-score

Input: May I ask what binding signal has been recorded for CTGCGACA ?
Output: 0.195 E-score
